Molecular target: PHD2 enzyme (residues 181-417) (Homo sapiens)
Construct: The IC50 values for the PHD2 enzyme (residues 181-417) were determined
Sequence (Q9GZT9 181-417): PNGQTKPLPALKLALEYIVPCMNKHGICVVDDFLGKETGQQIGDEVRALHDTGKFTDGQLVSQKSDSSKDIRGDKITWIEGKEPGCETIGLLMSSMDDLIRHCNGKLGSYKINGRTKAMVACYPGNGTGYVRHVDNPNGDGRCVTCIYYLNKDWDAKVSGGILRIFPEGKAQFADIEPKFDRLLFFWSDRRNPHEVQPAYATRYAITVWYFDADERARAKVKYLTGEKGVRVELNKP
Test: Inhibition of PHD2 Enzyme (LC/MS detection of hydroxylated peptide)
Assay type: biochemical
Settings: 5 nM enzyme, 1 μM biotin-labeled peptide, 2 μM 2-oxoglutarate, 60 min pre-incubation, pH 7.3; -log(IC50), IC50 molar; read-out: Inhibition of PHD2 (pIC50) (converted)
So I've got a bunch of compounds here, and I need their log10(IC50) values.
Response schema: value (number) is log10 of IC50 in units of nM.

>  <compound>
Cc1cc(C#N)cc(C)c1CNC(=O)c1ncc(F)cc1O

>  <target>
PHD2 enzyme (residues 181-417) (Homo sapiens)

>  <log10(IC50)>
1.20

$$$$
>  <compound>
CCN1CCN(C(=O)c2cnc(C(=O)N[C@@H]3CCc4cc(C#N)ccc43)c(O)c2)CC1

>  <target>
PHD2 enzyme (residues 181-417) (Homo sapiens)

>  <log10(IC50)>
1.70

$$$$
>  <compound>
CCN1CCN(C(=O)c2cnc(C(=O)NCc3ccc(C#N)cc3C)c(O)c2)CC1

>  <target>
PHD2 enzyme (residues 181-417) (Homo sapiens)

>  <log10(IC50)>
2.00

$$$$
>  <compound>
Cc1cnc(C(=O)N[C@@H]2CCc3cc(C#N)ccc32)c(O)c1

>  <target>
PHD2 enzyme (residues 181-417) (Homo sapiens)

>  <log10(IC50)>
1.50

$$$$
>  <compound>
CC(NC(=O)c1ncccc1O)c1ccc(C#N)cc1 (stereo not drawn)

>  <target>
PHD2 enzyme (residues 181-417) (Homo sapiens)

>  <log10(IC50)>
3.20

$$$$
>  <compound>
Cc1cc(C#N)ccc1CNC(=O)c1ncc(Cl)cc1O

>  <target>
PHD2 enzyme (residues 181-417) (Homo sapiens)

>  <log10(IC50)>
1.60

$$$$

Please look at the items below and tell me log10(IC50) for each one, in order.
1. N#Cc1ccc(CNC(=O)c2ncccc2O)c(C(F)(F)F)c1
2. Cc1cc(C#N)cc(C)c1CNC(=O)c1ncc(Cl)cc1O
3. N#Cc1cnc(C(=O)N[C@@H]2CCc3cc(C#N)ccc32)c(O)c1

Response:
[3.60, 1.30, 1.60]

----------
Target: PHD2 enzyme (residues 181-417) (Homo sapiens)
Construct: The IC50 values for the PHD2 enzyme (residues 181-417) were determined
Assay: Inhibition of PHD2 Enzyme (LC/MS detection of hydroxylated peptide)
Format: biochemical
Conditions: 5 nM enzyme, 1 μM biotin-labeled peptide, 2 μM 2-oxoglutarate, 60 min pre-incubation, pH 7.3; -log(IC50), IC50 molar; read-out: Inhibition of PHD2 (pIC50) (converted)
Would you kindly list IC50 for each of these molecules?
Answers are plain numbers, in µM.

Sample records with IC50:
>  <molecule>
Cc1cnc(C(=O)NCc2c(C)cc(C#N)cc2C)c(O)c1

>  <IC50 [µM]>
0.0316

$$$$
>  <molecule>
N#Cc1ccc(CNC(=O)c2ncccc2O)c(F)c1

>  <IC50 [µM]>
0.0316

$$$$
>  <molecule>
COCCCNc1cnc(C(=O)NCc2c(C)cc(C#N)cc2C)c(O)c1

>  <IC50 [µM]>
0.0316

$$$$
>  <molecule>
Cc1cc(CNC(=O)c2ncccc2O)c(C)cc1C#N

>  <IC50 [µM]>
0.0398

$$$$
>  <molecule>
N#Cc1ccc2c(c1)CC[C@H]2NC(=O)c1ncccc1O [Example 20]

>  <IC50 [µM]>
0.0126

$$$$

Look up IC50 for the entries below, preserving their order.
1. N#Cc1ccc(CNC(=O)c2ncccc2O)c(Cl)c1
2. Cc1cc(C#N)c(F)cc1CNC(=O)c1ncccc1O
3. Cc1cc(C#N)ccc1CNC(=O)c1ncccc1O
4. COc1cnc(C(=O)N[C@@H]2CCc3cc(C#N)ccc32)c(O)c1
5. Cc1cc(C#N)ccc1CNC(=O)c1ncc(C#N)cc1O

Response:
[0.0251, 0.0158, 0.02, 0.00794, 0.316]

----------
Molecular target: PHD2 enzyme (residues 181-417) (Homo sapiens)
Construct: The IC50 values for the PHD2 enzyme (residues 181-417) were determined
Assay: Inhibition of PHD2 Enzyme (LC/MS detection of hydroxylated peptide)
Type: biochemical
Conditions: 5 nM enzyme, 1 μM biotin-labeled peptide, 2 μM 2-oxoglutarate, 60 min pre-incubation, pH 7.3; -log(IC50), IC50 molar; read-out: Inhibition of PHD2 (pIC50) (converted)
measuredEndpoint: IC50 (nM)
Give bare numbers, in nM.

Recorded IC50, per entry:
>  <compound>
N#Cc1cccc(CNC(=O)c2ncccc2O)c1 [Example 2, N-(3-cyanobenzyl)-3-hydroxypicolinamide, reference compound]

>  <target>
PHD2 enzyme (residues 181-417) (Homo sapiens)

>  <IC50 (nM)>
3160

$$$$
>  <compound>
Cc1c(CNC(=O)c2ncccc2O)ccc(C#N)c1F [Example 14]

>  <target>
PHD2 enzyme (residues 181-417) (Homo sapiens)

>  <IC50 (nM)>
12.6

$$$$
>  <compound>
N#Cc1ccc(CNC(=O)c2ncccc2O)cc1F [Example 6]

>  <target>
PHD2 enzyme (residues 181-417) (Homo sapiens)

>  <IC50 (nM)>
31.6

$$$$
>  <compound>
CCN1CCN(c2cnc(C(=O)NCc3c(C)cc(C#N)cc3C)c(O)c2)CC1 [Example 41]

>  <target>
PHD2 enzyme (residues 181-417) (Homo sapiens)

>  <IC50 (nM)>
79.4

$$$$
>  <compound>
N#Cc1ccc(CNC(=O)c2ncccc2O)cc1 [Example 1, N-(4-cyanobenzyl)-3-hydroxypicolinamide]

>  <target>
PHD2 enzyme (residues 181-417) (Homo sapiens)

>  <IC50 (nM)>
63.1

$$$$

Consider the following items and state reported IC50 for each.
1. N#Cc1ccc2c(c1)CCCC2NC(=O)c1ncccc1O (centres unmarked) [Example 18]
2. Cc1cc(C#N)cc(C)c1CNC(=O)c1ncc(C(F)(F)F)cc1O [Example 28]

Response:
1260
50.1

----------
Please provide measured IC50 for the entries that follow.
Molecular target: PHD2 enzyme (residues 181-417) (Homo sapiens)
Construct: The IC50 values for the PHD2 enzyme (residues 181-417) were determined
Assay: Inhibition of PHD2 Enzyme (LC/MS detection of hydroxylated peptide)
Assay type: biochemical
Settings: 5 nM enzyme, 1 μM biotin-labeled peptide, 2 μM 2-oxoglutarate, 60 min pre-incubation, pH 7.3; -log(IC50), IC50 molar; read-out: Inhibition of PHD2 (pIC50) (converted)

>  <compound>
Cc1cc(C#N)ccc1CNC(=O)c1ncc(C(F)(F)F)cc1O [Example 37]

>  <testValue>
251 nM

$$$$
>  <compound>
N#Cc1ccc(CNC(=O)c2ncc(C#N)cc2O)cc1 [Example 16]

>  <testValue>
251 nM

$$$$
>  <compound>
N#Cc1ccc2c(c1)CC[C@H]2NC(=O)c1ncc(Cl)cc1O [Example 31]

>  <testValue>
31.6 nM

$$$$

For every item in the list below, what is its measured IC50?
1. COc1cnc(C(=O)NCc2ccc(C#N)cc2C)c(O)c1 [Example 38]
2. N#Cc1ccc2c(c1)CC[C@H]2NC(=O)c1ncc(F)cc1O [Example 30]
3. N#Cc1ccc2c(c1)CC[C@H]2NC(=O)c1ncc(C(F)(F)F)cc1O [Example 32]
4. Cc1cc(C#N)cc(C)c1CNC(=O)c1ncc(N2CCN(CC(F)F)CC2)cc1O [Example 42]
5. N#Cc1ccc2c(c1)CC[C@@H]2NC(=O)c1ncccc1O [Example 21]

Response:
1: 10 nM; 2: 15.8 nM; 3: 126 nM; 4: 39.8 nM; 5: 2510 nM

List the reported IC50 of each compound below.
1. Cc1cc(C#N)cc(C)c1CNC(=O)c1ncccc1O [Example 10]
2. N#Cc1ccc(CNC(=O)c2ncccc2O)nc1 [Example 24]

Response:
["12.6 nM", "398 nM"]
